- targetSystem: CB2 (Homo sapiens (Human), UniProt P34972)
- Sequence (P34972 whole entry): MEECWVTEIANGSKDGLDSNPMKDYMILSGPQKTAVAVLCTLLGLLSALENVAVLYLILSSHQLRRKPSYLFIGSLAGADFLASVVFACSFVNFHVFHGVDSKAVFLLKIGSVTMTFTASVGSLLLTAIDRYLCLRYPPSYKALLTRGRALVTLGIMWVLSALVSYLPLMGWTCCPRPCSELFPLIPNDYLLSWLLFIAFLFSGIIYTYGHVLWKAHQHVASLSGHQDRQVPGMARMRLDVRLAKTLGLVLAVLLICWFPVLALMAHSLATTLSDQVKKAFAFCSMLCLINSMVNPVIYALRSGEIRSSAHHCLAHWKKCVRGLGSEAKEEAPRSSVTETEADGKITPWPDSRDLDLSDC
- assaySummary: CB2 Binding Assay ([3H]WIN 55212-2, cell membrane homogenates)
- appliedConditions: CB2; test concentration 1.0E−05 (MD); second replicate
parameter: % of Control Specific Binding 2nd (%)

compound: CC1(Cc2ccccc2)COc2ccc(C(=O)N3CCCCC3)cc21 (stereo not drawn)
parameter: % of Control Specific Binding 2nd
unitsOfMeasure: %
value: 67.3
//
compound: CC1(Cc2ccccc2)COc2cc(C(=O)N3CCCCC3)ccc21 (stereo not drawn)
parameter: % of Control Specific Binding 2nd
unitsOfMeasure: %
value: 5.8
//
compound: CC1(Cc2ccccc2)COc2ccc(C(=O)Nc3ccccc3I)cc21 (stereo not drawn)
parameter: % of Control Specific Binding 2nd
unitsOfMeasure: %
value: 85.5
//
compound: CC1(Cc2ccccc2)COc2cc(C(=O)Nc3ccccc3I)ccc21 (stereo not drawn)
parameter: % of Control Specific Binding 2nd
unitsOfMeasure: %
value: 74.8
//
compound: CC1(Cc2ccccc2)COc2ccc(C(=O)NC3CCCCC3)cc21 (stereo not drawn)
parameter: % of Control Specific Binding 2nd
unitsOfMeasure: %
value: 25.1
//
compound: CC1(Cc2ccccc2)COc2cc(C(=O)NC3CCCCC3)ccc21 (stereo not drawn)
parameter: % of Control Specific Binding 2nd
unitsOfMeasure: %
value: 8.6

###

- targetSystem: CB2 (Homo sapiens (Human))
- assaySummary: CB2 Binding Assay ([3H]WIN 55212-2, cell membrane homogenates)
- appliedConditions: CB2; test concentration 1.0E−05 (MD)
Friendly reminder: % of Control Specific Binding Mean below 30% is Satisfied, at or above is Not satisfied.

compound: CC1(Cc2ccccc2)COc2cc(C(=O)Nc3ccccc3I)ccc21 (stereo not drawn) [Example 1]
categoryLabel: Not satisfied

compound: CC1(Cc2ccccc2)COc2ccc(C(=O)N3CCCCC3)cc21 (stereo not drawn) [Example 6]
categoryLabel: Not satisfied

compound: CC1(Cc2ccccc2)COc2ccc(C(=O)NC3CCCCC3)cc21 (stereo not drawn) [Example 5]
categoryLabel: Satisfied

compound: CC1(Cc2ccccc2)COc2cc(C(=O)NC3CCCCC3)ccc21 (stereo not drawn) [Example 2]
categoryLabel: Satisfied

compound: CC1(Cc2ccccc2)COc2ccc(C(=O)Nc3ccccc3I)cc21 (stereo not drawn) [Example 4]
categoryLabel: Not satisfied

compound: CC1(Cc2ccccc2)COc2cc(C(=O)N3CCCCC3)ccc21 (stereo not drawn) [Example 3]
categoryLabel: Satisfied
